# Lookup of reported fraction unbound keyed by entry
# Test Summary: Plasma protein binding, mouse
# Format: in vitro ADME
# Test Conditions: plasma, read-out: Plasma Protein Binding % bound
Metric: fraction unbound

compound="O=C(NC(c1ccccn1)C1CCCCC1)C1CCN(CCOc2ccccc2)CC1 (stereo not drawn)" metric="fraction unbound" numeric_result=0.051
compound="Clc1ccc(C(NCC2CCN(CCOc3ccccc3)CC2)c2ccccn2)cc1 (stereo not drawn)" metric="fraction unbound" numeric_result=0.023
compound="O=C(NC(c1ccc(Cl)cc1)c1ccccn1)C1CCN(CCCc2ccccc2)CC1 (stereo not drawn)" metric="fraction unbound" numeric_result=0.056
compound="O=C(NC(c1ccc(Cl)cc1)c1cccnc1)C1CCN(CCOc2ccccc2)CC1 (stereo not drawn)" metric="fraction unbound" numeric_result=0.027
compound="COc1cccc(C(NC(=O)C2CCN(CCOc3ccccc3)CC2)c2ccccc2)c1 (stereo not drawn)" metric="fraction unbound" numeric_result=0.04
compound="O=C(NC(c1ccc(Cl)cc1)c1ccccn1)C1CCN(CCOc2ccc(F)cc2F)CC1 (stereo not drawn)" metric="fraction unbound" numeric_result=0.015
compound="O=C(NC(c1ccc(Cl)cc1)c1ccccn1)C1CCN(CCOc2ccccc2Cl)CC1 (stereo not drawn)" metric="fraction unbound" numeric_result=0.008
compound="O=C(NC(c1ccc(Cl)cc1)c1ccccn1)C1CCN(CCOc2ccccc2)CC1 (stereo not drawn)" metric="fraction unbound" numeric_result=0.026
compound="O=C(NC(c1ccncc1)c1ccc(Cl)cc1)C1CCN(CCOc2ccccc2)CC1 (stereo not drawn)" metric="fraction unbound" numeric_result=0.05
